- Species: Homo sapiens
- test.details: Ratio of Ke for human cloned mu opioid receptor to Ke for human cloned kappa opioid receptor

smiles.record: CC[C@H](C)[C@@H](CN1CC[C@@](C)(c2cccc(O)c2)[C@@H](C)C1)NC(=O)[C@@]1(C)Cc2ccc(OC)cc2CN1
Ratio Ke: 5
--
smiles.record: CC(C)[C@@H](CN1CC[C@@](C)(c2cccc(O)c2)[C@@H](C)C1)NC(=O)[C@H]1Cc2ccc(O)cc2CN1C
Ratio Ke: 1310
--
smiles.record: COc1cccc([C@]2(C)CCN(C[C@@H](NC(=O)[C@H]3Cc4ccc(O)cc4CN3)C(C)C)C[C@@H]2C)c1
Ratio Ke: 649
--
smiles.record: CC(C)[C@@H](CN1CC[C@@](C)(c2cccc(O)c2)[C@@H](C)C1)NC(=O)[C@H]1Cc2ccc(O)cc2CN1
Ratio Ke: 1260

Reference for the values: ChEMBL document CHEMBL1154733
